Each entry below carries its measured AC50, system: Melanocortin receptor 4 (Homo sapiens, UniProt P32245). Note: assay procedure not described here.
Sequence (P32245 whole entry): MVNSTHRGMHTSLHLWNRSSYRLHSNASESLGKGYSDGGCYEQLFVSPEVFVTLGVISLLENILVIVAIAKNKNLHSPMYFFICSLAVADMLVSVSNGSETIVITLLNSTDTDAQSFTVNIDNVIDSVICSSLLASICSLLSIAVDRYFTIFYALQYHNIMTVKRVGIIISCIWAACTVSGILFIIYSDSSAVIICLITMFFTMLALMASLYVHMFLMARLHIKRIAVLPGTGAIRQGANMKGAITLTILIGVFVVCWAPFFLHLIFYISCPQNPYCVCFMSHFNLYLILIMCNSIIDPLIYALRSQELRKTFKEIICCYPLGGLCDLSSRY

Entry smiles | Value kind | Result
COc1ccccc1Oc1c(NS(=O)(=O)c2ccc(C(C)(C)C)cc2)nc(-c2ncccn2)nc1OCCO | AC50 | > 30 µM
Nc1ccc(S(=O)(=O)Nc2nccs2)cc1 | AC50 | > 30 µM

Specify AC50 for `CCN(CC)CCN1C(=O)CN=C(c2ccccc2F)c2cc(Cl)ccc21` , system Melanocortin receptor 4 (Homo sapiens, UniProt P32245). > 30 µM

* * *

Molecular target: Peroxisome proliferator-activated receptor gamma (Homo sapiens, UniProt P37231); note: assay procedure not described here
Sequence (P37231 whole entry): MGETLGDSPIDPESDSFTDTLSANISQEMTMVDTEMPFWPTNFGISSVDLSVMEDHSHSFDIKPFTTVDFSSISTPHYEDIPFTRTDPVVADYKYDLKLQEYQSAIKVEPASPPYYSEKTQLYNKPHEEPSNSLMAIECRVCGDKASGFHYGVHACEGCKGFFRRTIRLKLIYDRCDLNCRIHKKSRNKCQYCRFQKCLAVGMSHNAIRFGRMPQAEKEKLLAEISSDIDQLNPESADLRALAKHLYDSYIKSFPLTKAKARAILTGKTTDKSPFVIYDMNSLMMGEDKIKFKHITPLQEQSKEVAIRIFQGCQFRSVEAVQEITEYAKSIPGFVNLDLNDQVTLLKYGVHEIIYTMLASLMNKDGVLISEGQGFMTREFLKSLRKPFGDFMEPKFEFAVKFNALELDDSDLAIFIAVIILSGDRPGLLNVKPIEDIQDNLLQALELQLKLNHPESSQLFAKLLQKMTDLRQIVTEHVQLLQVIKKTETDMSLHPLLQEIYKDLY
Type: functional
Value kind: AC50

The cases that follow already have their AC50 on record.
Compound | Value kind | Result
OC[C@H]1O[C@@](CO)(O[C@H]2O[C@H](CO)[C@@H](O)[C@H](O)[C@H]2O)[C@@H](O)[C@@H]1O [SUCROSE] | AC50 | > 30 µM
CC(C)COCC(CN(Cc1ccccc1)c1ccccc1)N1CCCC1 (stereo not given) [BEPRIDIL] | AC50 | > 30 µM
Cc1onc(-c2ccccc2)c1-c1ccc(S(N)(=O)=O)cc1 [VALDECOXIB] | AC50 | > 30 µM
COc1ccccc1OCCNCC(O)COc1cccc2[nH]c3ccccc3c12 (stereo not given) [CARVEDILOL] | AC50 | 28 µM

# return recorded AC50 for input C/N=C(\NC)NCc1ccccc1 [BETHANIDINE] > 30 µM

Reference for the values: ChEMBL document CHEMBL5291721
